From: ChEMBL document CHEMBL3885881

Species on record: Rattus norvegicus
METHOD DESCRIPTION: DrugMatrix - Regimen: Daily Repeat
Format: toxicity, organism-based, Sprague-Dawley
Design: regimen Daily Repeat, gender Male, age 6-8 weeks
CONDITION DESCRIPTION: in vivo, po, 1500 mg/kg, 72 h, tissue Plasma, route oral GAVAGE, dose level High, time 3 day, vehicle .5 % CMC
METRIC: BLOOD UREA NITROGEN (mg/dL)
The answer is to be given in mg/dL; state only the numeric part.

O=C(N[C@H](CO)[C@H](O)c1ccc([N+](=O)[O-])cc1)C(Cl)Cl = 15.67
Cc1ccc(S(=O)(=O)NC(=O)NN2CC3CCCC3C2)cc1 (configuration not stated) [GLICLAZIDE] = 17.33
C[C@]1(Cn2ccnn2)[C@H](C(=O)O)N2C(=O)C[C@H]2S1(=O)=O = 15.67
CNC(=C[N+](=O)[O-])NCCSCc1ccc(CN(C)C)o1 = 14.67
CO[C@H]1/C=C/O[C@@]2(C)Oc3c(C)c(O)c4c(c3C2=O)C2=NC3(CCN(CC(C)C)CC3)NC2=C(NC(=O)/C(C)=C\C=C\[C@H](C)[C@H](O)[C@@H](C)[C@@H](O)[C@@H](C)[C@H](OC(C)=O)[C@@H]1C)C4=O = 14

Ask: Fill in reported BLOOD UREA NITROGEN for this entry: Cc1cc(=O)n(-c2ccccc2)n1C [ANTIPYRINE]
Reply: 14

Ask: Fill in reported BLOOD UREA NITROGEN for this entry: NC(=O)c1cnccn1 [PYRAZINAMIDE]
Reply: 16.67
